assay: Distribution coefficient, log D of compound in n-octanol and saturated PBS at pH 7.4 at 100 uM incubated for 2 hrs under shaking condition by HPLC analysis; type: physicochemical

Smiles structure: CCc1nc(N)nc(N)c1Cc1ccc(-c2ccc(C(=O)OC)cc2)cc1.Cl
logD at 2 h, 100 µM: 3.49
--
Smiles structure: CCc1nc(N)nc(N)c1Cc1ccc(-c2ccc(C(=O)O)cc2)cc1.Cl
logD at 2 h, 100 µM: 0.332
--
Smiles structure: CCc1nc(N)nc(N)c1Cc1cccc(-c2ccc(C(=O)OC)cc2)c1
logD at 2 h, 100 µM: 3.24
--
Smiles structure: CCc1nc(N)nc(N)c1OCCCOc1ccccc1CCC(=O)O
logD at 2 h, 100 µM: -0.095
--
Smiles structure: CCc1nc(N)nc(N)c1Cc1cccc(-c2cccc(C(=O)OC)c2)c1
logD at 2 h, 100 µM: 3.2
--
Smiles structure: CCc1nc(N)nc(N)c1Cc1ccc(-c2cccc(C(=O)OC)c2)cc1.Cl
logD at 2 h, 100 µM: 3.37

All figures here come from ChEMBL document CHEMBL5356935.
